# Test Protocol: Freeze-thaw stability in spiked pooled human plasma
# Format: physicochemical
# Settings: validation standard MOV
Observation Type: Freeze-Thaw Accuracy [%] (%)
One number for each entry, in %.

Items follow; give Freeze-Thaw Accuracy [%] for each.
1. CNC(=O)c1ccc(N2C(=S)N(c3ccc(C#N)c(C(F)(F)F)c3)C(=O)C2(C)C)cc1F [Enzalutamide]
2. CCc1cc2c(cc1N1CCC(N3CCOCC3)CC1)C(C)(C)c1[nH]c3cc(C#N)ccc3c1C2=O

100.9
101.2

----------
# Test Protocol: Short-term stability in spiked pooled human plasma (bench-top, 4 °C, 56 °C)
# Settings: validation standard LLOV
Observation Type: Short-time stability (1h, 56°C) Accuracy [%] (%)
One number for each entry, in %.

COc1cc2nccc(Oc3ccc(NC(=O)NC4CC4)c(Cl)c3)c2cc1C(N)=O	62.9
COc1cc2c(Nc3ccc(Br)cc3F)ncnc2cc1OCC1CCN(C)CC1	24.9
C=CC(=O)Nc1cc(Nc2nccc(-c3cn(C)c4ccccc34)n2)c(OC)cc1N(C)CCN(C)C	28.7
COC(=O)c1ccc2c(c1)NC(=O)/C2=C(\Nc1ccc(N(C)C(=O)CN2CCN(C)CC2)cc1)c1ccccc1	56.0
O=C(c1cc(Cc2n[nH]c(=O)c3ccccc23)ccc1F)N1CCN(C(=O)C2CC2)CC1	80.6

Report Short-time stability (1h, 56°C) Accuracy [%] for each item below.
1. CC(C)(C)c1nc(-c2cccc(NS(=O)(=O)c3c(F)cccc3F)c2F)c(-c2ccnc(N)n2)s1
2. COc1cc(N2CCC(N3CCN(C)CC3)CC2)ccc1Nc1ncc(Cl)c(Nc2ccccc2P(C)(C)=O)n1
3. CCOc1cc2ncc(C#N)c(Nc3ccc(OCc4ccccn4)c(Cl)c3)c2cc1NC(=O)/C=C/CN(C)C

1. 42.8
2. 7.8
3. -88.6
